Listed here: items and their measured -Log KB.
# System: Cysteinyl leukotriene receptor (Cavia porcellus)
# testDetails: In vitro ability to antagonize a leukotriene D4 induced contraction of guinea pig trachea.
valueKind: -Log KB

INSERT INTO results (compound, valuekind, numericvalue) VALUES
  ('CCCCCCCCCCC#Cc1ccccc1C(SCCC(=O)O)SCCC(=O)O', '-Log KB', 5.9),
  ('CCCCCCCCCOc1ccccc1C(SCCC(=O)O)SCCC(=O)O', '-Log KB', 5.8),
  ('CCCCCCCCCCCOc1ccc(O)cc1C(SCCC(=O)O)SCCC(=O)O', '-Log KB', 6),
  ('CCCCCCCCCCCCc1ccccc1C(SCC(=O)O)SCC(=O)O', '-Log KB', 5.9),
  ('CCCCCCCCCCCCC(SCCC(=O)O)SCCC(=O)O', '-Log KB', 5.2),
  ('CCCCC/C=C/C/C=C/COc1ccccc1C(SCCC(=O)O)SCCC(=O)O', '-Log KB', 6),
  ('O=C(O)CCSC(SCCC(=O)O)c1ccccc1OCCCCCCc1ccccc1', '-Log KB', 5.3),
  ('O=C(O)CCSC(SCCC(=O)O)c1ccccc1CCCCCCCCCCCC(F)(F)F', '-Log KB', 6.2),
  ('CCCCCCCCCCCCc1ccccc1C(SCCC(=O)O)[S+]([O-])CCC(=O)O (stereo unspecified)', '-Log KB', 5.8),
  ('O=C(O)CCSC(SCCC(=O)O)c1cc(C(F)(F)F)ccc1CCCCCCCCc1ccccc1', '-Log KB', 7),
  ('CCCCCCCCCCC#CC(SCCC(=O)O)SCCC(=O)O', '-Log KB', 6.1);

---

Examples of compounds with documented -Log KB follow.
# Test system: Cysteinyl leukotriene receptor (Cavia porcellus)
# testDetails: In vitro ability to antagonize a leukotriene D4 induced contraction of guinea pig trachea.
valueKind: -Log KB

INSERT INTO assay_data (compoundsmiles, numericvalue) VALUES
  ('CCCCC/C=C/C/C=C/COc1cccc(C(SCCC(=O)O)SCCC(=O)O)c1', 6.2),
  ('CCCc1c(OCCCCCOc2ccccc2C(SCCC(=O)O)SCCC(=O)O)ccc(C(C)=O)c1O', 6.6),
  ('CCCCCCCCCC/C=C/c1ccccc1C(SCCC(=O)O)SCCC(=O)O', 5.8),
  ('CCCCCCCCCCCOc1ccc(Br)cc1C(SCCC(=O)O)SCCC(=O)O', 6),
  ('O=C(O)CCSC(SCCC(=O)O)c1cccc(CCCCCCCCc2ccccc2)c1', 6),
  ('CCCCCCCCCCc1ccccc1C(SCCC(=O)O)SCCC(=O)O', 6.5),
  ('CCCCCCCCCCCOc1ccc(OC)cc1C(SCCC(=O)O)SCCC(=O)O', 5.9),
  ('CCCCCCCCc1ccccc1C(SCCC(=O)O)SCCC(=O)O', 5.2),
  ('C#CCCCCCCCCCCc1ccccc1C(SCCC(=O)O)SCCC(=O)O', 6.8),
  ('CCCCCCCCCCCCc1ccccc1C(SCCC(=O)O)SCCC(=O)O', 6),
  ('O=C(O)CCSC(SCCC(=O)O)c1ccccc1CCCCCCCCC1CCCCC1', 5.5),
  ('CCCCCCCCCCCOc1cccc(C(SCCC(=O)O)SCCC(=O)O)c1', 6.1),
  ('CCCCCCCCC#CC(SCCC(=O)O)SCCC(=O)O', 5),
  ('CCCCCCCCCOc1cccc(C(SCCC(=O)O)SCCC(=O)O)c1', 6),
  ('CCCCCCCCCCCOc1ccc([N+](=O)[O-])cc1C(SCCC(=O)O)SCCC(=O)O', 6.1),
  ('CCCCCCCCCCCSc1ccccc1C(SCCC(=O)O)SCCC(=O)O', 6),
  ('CCCCCCCCCCCOc1ccccc1C(SCCC(=O)O)SCCC(=O)O', 6.4),
  ('CCCCCCCCCCCCC#CC(SCCC(=O)O)SCCC(=O)O', 5.7),
  ('CCCCCCCCCCC#CC(SCCCC(=O)O)SCCCC(=O)O', 5.6),
  ('CCCCCCCCCCCOc1ccccc1C(C)(SCCC(=O)O)SCCC(=O)O', 5.6),
  ('CCCCCCCCCCC#CC(SCC(=O)O)SCC(=O)O', 5.3),
  ('CCCCc1ccc(CCCCc2ccccc2C(SCCC(=O)O)SCCC(=O)O)cc1', 5.6);

---

// reported log10 of Ki for each item listed
# systemUnderTest: Cysteinyl leukotriene receptor (Cavia porcellus)
# testDetails: Compound is evaluated for its ability to inhibit [3H]LTD4 binding to Cysteinyl leukotriene D4 receptor in guinea pig lung membranes
valueKind: log10 of Ki (log10 of the value in nM)

INSERT INTO results (molecule, numericvalue) VALUES
  ('CCCCCCCCCCCOc1ccc([N+](=O)[O-])cc1C(SCCC(=O)O)SCCC(=O)O', 2.48),
  ('O=C(O)CCSC(SCCC(=O)O)c1ccccc1OCCCCCCc1ccccc1', 4.06),
  ('CCCCCCCCCOc1cccc(C(SCCC(=O)O)SCCC(=O)O)c1', 2.80),
  ('CCCCCCCCCCCSc1ccccc1C(SCCC(=O)O)SCCC(=O)O', 2.81),
  ('O=C(O)CCSC(SCCC(=O)O)c1ccccc1OCCCC1CCCCC1', 3.00),
  ('CCCCc1ccc(CCCCc2ccccc2C(SCCC(=O)O)SCCC(=O)O)cc1', 3.63),
  ('CCCCCCCCCCCCc1ccccc1C1S[C@@H](C(=O)O)[C@H](C(=O)O)S1', 2.60),
  ('CCCCCCCCCCC[C@@H]1CC(SCCC(=O)O)(SCCC(=O)O)c2ccccc21', 3.32),
  ('CCCCCCCCCCCCc1ccccc1C(SCC(=O)O)SCC(=O)O', 2.93),
  ('CCCCCCCCCCc1ccc(C(SCCC(=O)O)SCCC(=O)O)cc1', 3.88),
  ('CCCCCCCCCCc1ccccc1C(SCCC(=O)O)SCCC(=O)O', 3.07),
  ('CCCCCCCCCCCCc1cccc(C)c1C(SCCC(=O)O)SCCC(=O)O', 3.56),
  ('CCCCCCCCc1ccccc1C(SCCC(=O)O)SCCC(=O)O', 3.75),
  ('CCCCCCCCCCCOc1ccc(Br)cc1C(SCCC(=O)O)SCCC(=O)O', 2.80),
  ('CCCCCCCCCCCCCOc1cccc(C(SCCC(=O)O)SCCC(=O)O)c1', 2.72),
  ('CCCc1c(OCCCCCOc2ccccc2C(SCCC(=O)O)SCCC(=O)O)ccc(C(C)=O)c1O', 3.50),
  ('O=C(O)CCSC(SCCC(=O)O)c1ccccc1CCCCCCCCCCCC(F)(F)F', 2.17),
  ('O=C(O)CCSC(SCCC(=O)O)c1cc(C(F)(F)F)ccc1CCCCCCCCc1ccccc1', 2.68),
  ('CCCCCCCCCCCCc1ccccc1C1S[C@H](C(=O)O)[C@H](C(=O)O)S1 (stereo in doubt; 61)', 4.24),
  ('CCCCC/C=C/C/C=C/COc1cccc(C(SCCC(=O)O)SCCC(=O)O)c1', 2.27),
  ('CCCCCCCCCCCCc1ccccc1C(CCCC(=O)O)CCCC(=O)O', 3.37),
  ('CCCCC/C=C/C/C=C/COc1ccccc1C(SCCC(=O)O)SCCC(=O)O', 3.00),
  ('CCCCCCCCCCCOc1ccccc1C(SCCC(=O)O)SCCC(=O)O', 2.46),
  ('CCCCCCCCCCCOc1ccc(OC)cc1C(SCCC(=O)O)SCCC(=O)O', 2.76),
  ('CCCCCCCCCCCCCCc1ccccc1C(SCCC(=O)O)SCCC(=O)O', 3.10),
  ('CCCCCCCCCCCCc1ccccc1C(SCCC(=O)O)SCCC(=O)O', 2.65),
  ('CCCCCCCCCCCCc1ccccc1C(SCCCC(=O)O)SCCCC(=O)O', 2.97),
  ('C#CCCCCCCCCCCc1ccccc1C(SCCC(=O)O)SCCC(=O)O', 2.15),
  ('CCCCCCCCCOc1ccccc1C(SCCC(=O)O)SCCC(=O)O', 3.61),
  ('CCCCCCCCCCCOc1ccc(O)cc1C(SCCC(=O)O)SCCC(=O)O', 2.19),
  ('CCCCCCCCCC/C=C\c1ccccc1C(SCCC(=O)O)SCCC(=O)O', 3.14),
  ('CCCCCCCCCCCCc1ccccc1C(SCCC(=O)O)[S+]([O-])CCC(=O)O (centres undefined)', 2.63),
  ('O=C(O)CCSC(SCCC(=O)O)c1cccc(CCCCCCCCc2ccccc2)c1', 2.63),
  ('CCCCCCCCCC/C=C/c1ccccc1C(SCCC(=O)O)SCCC(=O)O', 2.69),
  ('CCCCCCCCCCC#Cc1ccccc1C(SCCC(=O)O)SCCC(=O)O', 3.40),
  ('O=C(O)CCSC(SCCC(=O)O)c1ccccc1CCCCCCCCC1CCCCC1', 3.29),
  ('CCCCCCCCCCCOc1cccc(C(SCCC(=O)O)SCCC(=O)O)c1', 1.89);

// provenance: ChEMBL document CHEMBL1123338
